# System: NCI-H226
# PROTOCOL: NCI tumour cell line growth inhibition, 48 h
The source made the active and inactive calls. Rule as the data show it: active = GI50 up to about 1.1 µM and inactive = higher.
Possible outcomes: active, inactive

>>> df
                                    molecule  category
 0  COc1cc(S(=O)(=O)Nc2nc(-c3ccc(N4C(=O)/C(=C/C=C/c5ccccc5)N=C4c4ccccc4)cc3)cs2)ccc1Cl  inactive
 1  CN1C(c2ccccc2)CC(O)CC1c1ccccc1 (stereo not given)  inactive
 2  O=CC1C[C@@H](N2C(=O)O[C@@H](c3ccccc3)[C@H]2c2ccccc2)[C@@H]1COCc1ccccc1 (stereo not given in full)  inactive
 3                 CCOC(=N)CC(=O)Nc1ccccc1CC  inactive
 4  O=[N+]([O-])C(/C=C(\Cl)[N+](=O)[O-])=C1Nc2ccccc2N1  inactive
 5  O=NN(CCCl)C(=O)N[C@H]1CC[C@H](C(=O)O)CC1  inactive
 6  CS(=O)(=O)OCCN(CCOS(C)(=O)=O)c1ccc(/C=N/c2ccc(-c3csc(Cc4ccccc4)n3)cc2)c(Cl)c1    active
 7  O=C(CCn1[nH]c(=O)c(Cl)c(Cl)c1=O)NNC(=O)C[n+]1ccccc1  inactive
 8  CSC1=NC(C(N)=O)C(N)N1C (stereo not given)  inactive
 9  CC(Oc1ccc2cc(C(=O)c3ccccc3)c(=O)oc2c1)C(=O)O (stereo not given)  inactive
10  Cc1ccc2nc(-c3ccc(N4C(=O)C(Cl)C4c4ccc(Cl)cc4)cc3)sc2c1 (stereo not given)  inactive
11  Cc1cc2[nH]c3c(C#N)c(-c4ccccc4)c(/C=N/c4cccc(C(F)(F)F)c4)c(=O)n3c2cc1C  inactive
12                CCN(CC)C(=S)N/N=C/c1ccccn1    active
13  Cc1cccc(C(C)(C)C)c1NC(=O)/C(Cc1nc2ccc([N+](=O)[O-])cc2nc1O)=N\NC(=O)C[N+](C)(C)C  inactive
14  Cc1ccc(S(=O)(=O)N/N=C/CN2C(=O)c3ccccc3C2=O)cc1  inactive
15  CCN(CC)CCCNc1ccc([N+](=O)[O-])c2nc3ccc(OC)cc3c(N)c12  inactive
16       COc1ccc2nc3c(c(NCCCN(C)C)c2c1)CCCC3  inactive
17  NS(=O)(=O)c1cc(Cl)c(NC(=S)NC(=O)Nc2ccc(Cl)c(Cl)c2)c(Cl)c1  inactive
18  C=C1C(=O)OC2/C=C(/C)C(OC(C)=O)C/C=C(\C)C(OC(=O)C3(C)OC3C)C(O)C12 (stereo not given)  inactive
19  C[C@@H]1C(=O)CC2C(C)(C)CCC[C@]2(C)[C@@]12CC[C@]1(C=COC1)O2 (stereo not given in full)  inactive

* * *

# Test system: NCI-H522
# PROTOCOL: NCI tumour cell line growth inhibition, 48 h
Activity calls are given as the source filed them. No stated cut-off is given here; in the data, active = GI50 up to about 1.1 µM and inactive = higher.
Measured GI50 accompanies every entry in the list below.
QUANTITY NAME: GI50

                                   molecule  quantity_name         assay_result
0  C=C(C)C(=O)O[C@H]1C[C@@]23O[C@@H]2CCC(=C[C@H]2OC(=O)C(=C)[C@H]12)COC3O (stereo not given in full)           GI50   14.4 µM (inactive)
1         Nc1ccc2nc(-c3cccc(Cl)c3)cc(O)c2c1           GI50   2.34 µM (inactive)
2  COc1cccc2c1/c(=C/c1ccc(N(C)C)cc1)c1cc(-c3ccccc3)[n+](C)n12           GI50    0.168 µM (active)
3  O=[N+]([O-])C(/C=C(\Cl)[N+](=O)[O-])=C1Nc2ccccc2N1           GI50  > 100 µM (inactive)
4  Cc1ccc2nc(CN3CCCC(O)C3)cc(=O)n2c1 (stereo not given)           GI50  > 100 µM (inactive)

* * *

# System: RPMI-8226
# PROTOCOL: NCI tumour cell line growth inhibition, 48 h
Active and inactive are the calls of the source. Cut-off read from the data, not from the text of the source: active = GI50 up to about 1.1 µM and inactive = higher.
QUANTITY NAME: GI50

>>> print(df.to_string())
                                   compound         assay_result
0  CC(=O)O[C@@H]1C=C(C)[C@H](CBr)O[C@@]2(C)CC[C@H](Br)C(C)(C)[C@H]12  > 100 µM (inactive)
1  CO[C@@]12[C@H](COC(N)=O)C3=C(C(=O)C(C)=C(N)C3=O)N1C[C@H]1[C@@H]2N1C (stereo not given in full)   8.41 µM (inactive)
2  CCCCC1Cc2ccccc2-c2nc3ccccc3n21 (stereo not given)   12.1 µM (inactive)
3        c1ccc2sc(C3(N4CCCCC4)CCCCCC3)cc2c1   14.2 µM (inactive)
4      Cc1cc(SCC(=O)c2ccc(Br)cc2)cc(C)[o+]1   21.7 µM (inactive)
5             Cn1c(=O)n(C2(C)CSC2)c2ccccc21  > 100 µM (inactive)
6  C=C1C(=O)C[C@@]23CCC[C@@]12CC(OCOC)C3 (stereo not given in full)   2.55 µM (inactive)
7  C=CC1(CC)/C(=N\O)C(CC)(CC)C(=O)N1O (stereo not given)  > 100 µM (inactive)
8  O=C1c2ccccc2C(=O)N1n1c(Cc2ccc([N+](=O)[O-])cc2)n[nH]c1=O  > 100 µM (inactive)
9  COc1ccccc1C1C2=C(COC2=O)OC(C)(C)Oc2cc3c(cc21)OCO3 (stereo not given)   4.03 µM (inactive)

* * *

# Tested on: DMS-114
# PROTOCOL: NCI tumour cell line growth inhibition, 48 h
Calls of active or inactive are those of the source. No stated cut-off is given here; in the data, active = GI50 up to about 1.1 µM and inactive = higher.
QUANTITY NAME: GI50

>>> df
                                test_smiles  quantity_name         assay_result
0  O=C(CCn1[nH]c(=O)c(Cl)c(Cl)c1=O)NNC(=O)C[n+]1ccccc1           GI50  > 100 µM (inactive)
1                  COc1c(Cl)cc(Cl)cc1S(=O)O           GI50  > 100 µM (inactive)
2      Nc1nc(=O)n([C@@H]2CC[C@H](CO)O2)cc1F           GI50  > 100 µM (inactive)
3  c1ccc(Nc2nnc(CSc3nc(-c4ccccc4)c(-c4ccccc4)[nH]3)s2)cc1           GI50   27.5 µM (inactive)

* * *

Measured GI50 accompanies every entry in the list below.
# System: NCI-H522
# PROTOCOL: NCI tumour cell line growth inhibition, 48 h
The source made the active and inactive calls. Rule as the data show it: active = GI50 up to about 1.1 µM and inactive = higher.
QUANTITY NAME: GI50

In [3]: df
Out[3]:
                                   molecule  experimental_system         assay_result
0  O=C(Nc1ccccc1)n1[nH]c(=O)n(-c2ccccc2)c1=O             NCI-H522  > 100 µM (inactive)
1  Cc1cccc(C(C)(C)C)c1NC(=O)/C(Cc1nc2ccc([N+](=O)[O-])cc2nc1O)=N\NC(=O)C[N+](C)(C)C             NCI-H522   17.4 µM (inactive)
2  O=CC1C[C@@H](N2C(=O)O[C@@H](c3ccccc3)[C@H]2c2ccccc2)[C@@H]1COCc1ccccc1 (stereo not given in full)             NCI-H522   16.4 µM (inactive)
3     COc1ccccc1-n1c(=O)n(C)c(=O)n1C(C)(C)C             NCI-H522   29.3 µM (inactive)
4  COCOC1/C=C/CCCC#C[C@H](C)C(=O)CC1 (stereo not given in full)             NCI-H522    5.7 µM (inactive)

* * *

# System: SF-539
# PROTOCOL: NCI tumour cell line growth inhibition, 48 h
Calls of active or inactive are those of the source. No stated cut-off is given here; in the data, active = GI50 up to about 1.1 µM and inactive = higher.
Possible outcomes: 1.0 for active, 0.0 for inactive

COMPOUND	CATEGORY
Cn1nc(-c2ccccc2)c(C(=O)/C=C/c2ccc(F)cc2)c(N2CCCCC2)c1=O	0.0
CC(=O)C(I(OS(=O)(=O)c1ccc(C)cc1)c1ccccc1)=P(c1ccccc1)(c1ccccc1)c1ccccc1	0.0
O=c1[nH]cc(C(F)(C(F)(F)F)C(F)(F)F)c(=O)[nH]1	0.0
COC(=O)c1c(-c2cc(OC)c(OC)c(OC)c2)oc2ccccc2c1=O	0.0
CC(C)(C)C1=CC(CCC(=O)Nc2ccccc2[N+](=O)[O-])=NC(S)N1 (centres undefined)	0.0
CCCCCCC1CCC2CCCC(C)N12 (centres undefined)	0.0
Cc1cc(S(=O)(=O)Nc2nc3cscc3c(=O)n2N)c(S)cc1Cl	0.0
C[C@@H]1C(=O)CC2C(C)(C)CCC[C@]2(C)[C@@]12CC[C@]1(C=COC1)O2 (some centres undefined)	0.0
NC(=O)c1csc(C2O[C@@H](COP(=O)(O)OP(=O)(O)OC[C@H]3OC(n4cnc5c(N)ncnc54)[C@H](O)[C@@H]3O)[C@H](O)[C@@H]2O)n1 (some centres undefined)	0.0
CN(C)/C=N\c1cc[nH]c(=O)n1	0.0
CC(=O)O[C@H]1C(=O)[C@@]2(C)C(C(OC(=O)c3ccccc3)[C@]3(O)CC(OC(=O)C(O)C(NC(=O)c4ccccc4)c4ccc(C)cc4)C(C)=C1C3(C)C)[C@]1(OC(C)=O)CO[C@@H]1C[C@@H]2O (some centres undefined)	1.0
CC(C(=O)N1c2ccccc2Sc2ccccc21)N1c2ccccc2Sc2ccccc21 (centres undefined)	0.0
Cc1ccc(S(=O)(=O)N/N=C2/CCC(C(C)(C)C)CC2Br)cc1 (centres undefined)	0.0
COc1ccc(-c2c(C#N)c(S)n(NS(=O)(=O)c3ccc(C)cc3)c(=O)c2C#N)cc1	0.0
Cc1cc2[nH]c3c(C#N)c(-c4ccccc4)c(/C=N/c4cccc(C(F)(F)F)c4)c(=O)n3c2cc1C	0.0
COC1CC(C)([N+](=O)[O-])C(O)C(C)O1 (centres undefined)	0.0
Cc1nc2c(=O)n(C)c(=O)n(C)c2o1	0.0
Cn1c(=O)n(C2(C)CSC2)c2ccccc21	0.0
CO[C@@]12[C@H](COC(N)=O)C3=C(C(=O)C(C)=C(N)C3=O)N1C[C@H]1[C@@H]2N1C (some centres undefined)	0.0
